System: TGF-β activity in LX2 cells
Experiment: SMAD2/3 luciferase reporter assay of TGF-β activity in LX2 cells
Assay type: cell-based, human
Conditions: Homo sapiens, LX-2; SMAD2/3 luciferase reporter
recorded_metric: IC50 (nM)
Give bare numbers, in nM.

The compound listed as NC(=O)c1c(OCc2c(F)cc(Br)cc2F)nsc1NC(=O)NCCCCN1CCCC1 [OSI-632] shows IC50 equal to 13.7
